- Experiment notes: Shake-flask liquid distribution ratio (Kd), Hexane:Water:Buffer of 10:9:1
- Assay type: physicochemical
- Run parameters: THIAA Aug. 5, 2008; pH 5.6
- Protocol: Several shake-flask experiments were conducted to test several solvent systems and determine the liquid distribution ratio (Kd) and partition coefficient values for optimal separations. […] General Procedure and Parameters for Shake Flask Experiments: Addition of 1 mL of the stock buffer at a known pH. […] Each component was analyzed by HPLC and integrated using Shimadzu Class VP Software version 7.3 SP1.
Quantity name: K Value

CC(C)CCC(=O)[C@]1(O)C(O)=C(C(=O)CC(C)C)C(=O)[C@H]1CCC(C)C [TH 5] : 6.6

A: CCC(C)C(=O)C1=C(O)[C@@](O)(C(=O)CCC(C)C)[C@H](CCC(C)C)C1=O (single isomer, unassigned; (+)) [TH 4]
B: CC(C)CCC(=O)[C@@]1(O)C(O)=C(C(=O)C(C)C)C(=O)[C@H]1CCC(C)C [TH 2]
C: CC(C)CCC(=O)[C@]1(O)C(O)=C(C(=O)C(C)C)C(=O)[C@H]1CCC(C)C [TH 1]
[ask] Please order the records by their reported K Value, lowest number first. Give your ranking as a list of the labels in the requested order.
[reply] B, C, A

All figures here come from patent US20110275721A1.
